Here, each record is paired with measured inhibition data.
Assayed Target: Ribosomal protein S6 kinase alpha-1 (Homo sapiens) (UniProt Q15418)
Sequence (Q15418 whole entry): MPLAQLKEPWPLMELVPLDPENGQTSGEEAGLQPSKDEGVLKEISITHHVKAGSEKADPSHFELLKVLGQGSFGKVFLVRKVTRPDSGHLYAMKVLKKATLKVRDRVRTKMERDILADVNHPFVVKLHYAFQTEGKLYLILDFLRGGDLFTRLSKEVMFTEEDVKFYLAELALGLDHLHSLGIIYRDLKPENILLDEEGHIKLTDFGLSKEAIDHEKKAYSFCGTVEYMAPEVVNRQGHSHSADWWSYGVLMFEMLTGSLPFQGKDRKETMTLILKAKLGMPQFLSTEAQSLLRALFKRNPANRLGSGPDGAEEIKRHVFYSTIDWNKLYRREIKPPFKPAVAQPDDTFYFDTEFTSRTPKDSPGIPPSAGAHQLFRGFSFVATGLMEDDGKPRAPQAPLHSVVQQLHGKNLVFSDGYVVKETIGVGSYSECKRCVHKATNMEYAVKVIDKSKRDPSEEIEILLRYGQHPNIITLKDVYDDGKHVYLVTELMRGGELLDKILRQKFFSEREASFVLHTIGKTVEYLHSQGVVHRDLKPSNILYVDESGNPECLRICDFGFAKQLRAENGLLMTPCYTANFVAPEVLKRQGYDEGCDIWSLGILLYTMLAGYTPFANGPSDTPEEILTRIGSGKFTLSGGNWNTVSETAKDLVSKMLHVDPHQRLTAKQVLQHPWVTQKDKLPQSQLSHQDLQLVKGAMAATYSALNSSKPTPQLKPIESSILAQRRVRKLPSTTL
Protocol Notes: Inhibition of RSK1 at 30 uM by microfluidic mobility shift assay
Endpoint Label: inhibition (%)

[[record]]
smi = "Nc1n[nH]c2cc(-c3cccnc3)[nH]c(=O)c12"
value_units = "%"
recorded_number = 11

[[record]]
smi = "Cn1nc(N)c2c(=O)[nH]c(-c3ccccc3)cc21"
value_units = "%"
recorded_number = 8

[[record]]
smi = "CC(=O)Nc1nn(C)c2cc(-c3ccccc3)[nH]c(=O)c12"
value_units = "%"
recorded_number = 4

[[record]]
smi = "Cc1cc2c(c(N)nn2C)c(N2CC[C@H](O)C2)n1"
value_units = "%"
recorded_number = -5

[[record]]
smi = "Cc1cc2c(cn1)c(N)nn2C"
value_units = "%"
recorded_number = 1

[[record]]
smi = "Nc1n[nH]c2cc(-c3ccccn3)[nH]c(=O)c12"
value_units = "%"
recorded_number = 24

[[record]]
smi = "Nc1n[nH]c2cc(-c3ccc(N4CCOCC4)cc3)[nH]c(=O)c12"
value_units = "%"
recorded_number = 16

[[record]]
smi = "COCCNc1nc(C)cc2c1c(N)nn2C"
value_units = "%"
recorded_number = -4

[[record]]
smi = "Cc1cc2nc(N)nc(N)c2c(=O)[nH]1"
value_units = "%"
recorded_number = -4

[[record]]
smi = "CC(C)(C)c1cc2[nH]nc(N)c2c(=O)[nH]1"
value_units = "%"
recorded_number = 22

[[record]]
smi = "Cn1nc(N)c2c(=O)[nH]c(-c3ccccn3)cc21"
value_units = "%"
recorded_number = 9

[[record]]
smi = "COc1ccc(-c2cc3[nH]nc(N)c3c(=O)[nH]2)cc1"
value_units = "%"
recorded_number = 7

[[record]]
smi = "Cn1nc2c3c(nc(-c4ccccc4)cc31)NCC(=O)N2"
value_units = "%"
recorded_number = 0

[[record]]
smi = "Cc1cc2nn(-c3ccccc3)c(N)c2c(N2CCCCC2)n1"
value_units = "%"
recorded_number = 4

[[record]]
smi = "COc1ccc(-c2cc3c(c(N)nn3C)c(=O)[nH]2)cc1"
value_units = "%"
recorded_number = 18

[[record]]
smi = "COc1ccc(-c2cc3nn(-c4ccccc4)c(N)c3c(=O)[nH]2)cc1"
value_units = "%"
recorded_number = 4

[[record]]
smi = "Cc1cc2[nH]ncc2c(=O)[nH]1"
value_units = "%"
recorded_number = -3

[[record]]
smi = "COCCNc1nc(-c2ccccc2)cc2c1c(N)nn2C"
value_units = "%"
recorded_number = -3

[[record]]
smi = "Nc1n[nH]c2cc(-c3cccs3)[nH]c(=O)c12"
value_units = "%"
recorded_number = 35

[[record]]
smi = "CN1CCN(c2ccc(-c3cc4[nH]nc(N)c4c(=O)[nH]3)cc2)CC1"
value_units = "%"
recorded_number = 26

[[record]]
smi = "COc1cccc(-c2cc3[nH]nc(N)c3c(=O)[nH]2)c1"
value_units = "%"
recorded_number = 20

[[record]]
smi = "Cc1cc2[nH]nc(N)c2c(=O)[nH]1"
value_units = "%"
recorded_number = 6

[[record]]
smi = "Cc1cc2c(c(N)nn2C)c(=O)[nH]1"
value_units = "%"
recorded_number = 2

[[record]]
smi = "CN1CCN(c2ccc(-c3cc4nn(-c5ccccc5)c(N)c4c(=O)[nH]3)cc2)CC1"
value_units = "%"
recorded_number = 19

[[record]]
smi = "Nc1c2c(=O)[nH]c(-c3ccccn3)cc2nn1-c1ccccc1"
value_units = "%"
recorded_number = 6

